Assay: protein stability index of a GFP-peptide fusion (yeast GPS) (PSI 1-4); higher = more stable; sorted into four equal gates, so the index is relative within each strain
Settings: ubr1∆
Values of protein stability index greater than or equal to 3 map to 1 (yes); values below map to 0 (no).

Past entries and their recorded results:
# sequenceData, cat
measured = [
    ("KKHKQKKVLEIDFFKTD [BRN1]", "0 (no)"),
    ("WRKDAQGNYPTTSYIKE [DPB4]", "0 (no)"),
    ("GSDKQMFTQIYLERIEL [YML103C/NUP188]", "0 (no)"),
    ("FLARVIKEKFDEFIKTH [IRR1]", "0 (no)"),
]

Q: Is protein stability index at least 3? Consider ETFSTSAHQSPIMQTQM [SNF2]
A: 1 (yes)

Q: Textbook exercise: given the entry RSPPRPPSLKIIDGPKA [PRP28] , state whether its protein stability index is greater than or equal to 3.
A: 0 (no)

Q: hey, is protein stability index for this one >= 3? LALGSHNKLIQFGNACI [SSN2]
A: 0 (no)

Just for reference, the supplement of paper PMC9732359 is where these values come from.
